Below, each entry is listed alongside its reported growth.
- Test system: MDA-MB-435 melanoma
- protocolSummary: NCI-60 one-dose screen, 48 h (100 = growth as untreated, 0 = no growth, -100 = all killed)
- conditionDescription: 10 µM unless noted
About 83,000 compounds went through this panel and 20% of them were active in at least one assay; those are over-represented in the sample as a whole.
Reply numerically in %, unit not repeated.

Example entries begin here.
[[record]]
structuresmilesstring = "CC(C)(C)OC(=O)NCCc1ccc(N)cc1"
readoutlabel = "growth"
readoutnumber = 101

[[record]]
structuresmilesstring = "COC(=O)c1nc(=S)[nH]c(C(=O)OC)c1C(=O)c1ccc(OC)cc1"
readoutlabel = "growth"
readoutnumber = 110

[[record]]
structuresmilesstring = "Cc1cc(Cl)nc(Nc2ccccc2)n1"
readoutlabel = "growth"
readoutnumber = 98

[[record]]
structuresmilesstring = "CCn1c2ccc(N(C)C)cc2c2cc(N(C)C)ccc21"
readoutlabel = "growth"
readoutnumber = 111

[[record]]
structuresmilesstring = "OCCS"
readoutlabel = "growth"
readoutnumber = 105

[[record]]
structuresmilesstring = "NC(=O)Cc1nc(O)cc(=O)[nH]1"
readoutlabel = "growth"
readoutnumber = 106


Now consider a different compound.
Exercise: Quick one: growth of CS(=O)(=O)c1nsc(N)n1 ?
Solution: 107

---

- Tested on: SNB-75 CNS
- protocolSummary: NCI-60 one-dose screen, 48 h (100 = growth as untreated, 0 = no growth, -100 = all killed)
- conditionDescription: 10 µM unless noted
This is part of a sample that, as a whole, favours compounds with a hit. Of some 83,000 tested, about 20% had one in any assay.
readoutLabel: growth (%)
Reply numerically in %, unit not repeated.

Example entries begin here.
[[record]]
molecule = "O=C1Cc2ccccc2C(=O)N1"
testedsystem = "SNB-75 CNS"
readoutlabel = "growth"
readoutnumber = 96.1

[[record]]
molecule = "CC(=O)Nc1ccc2oc(=O)ccc2c1"
testedsystem = "SNB-75 CNS"
readoutlabel = "growth"
readoutnumber = 89

[[record]]
molecule = "OC1CCCN(Cc2ccccc2)C1 (centres undefined)"
testedsystem = "SNB-75 CNS"
readoutlabel = "growth"
readoutnumber = 113

[[record]]
molecule = "COC(=O)CCOc1ccccc1"
testedsystem = "SNB-75 CNS"
readoutlabel = "growth"
readoutnumber = 61.1

[[record]]
molecule = "CC(=O)Nc1cscc1NC(C)=O"
testedsystem = "SNB-75 CNS"
readoutlabel = "growth"
readoutnumber = 93.2

[[record]]
molecule = "CC(O)CCNC(c1ccccc1)C(O)c1ccccc1 (centres undefined)"
testedsystem = "SNB-75 CNS"
readoutlabel = "growth"
readoutnumber = 96.5


Exercise: Quick one: growth of CCOP(C)(=O)/C(Cc1ccc(OC)c(OC)c1)=N\O (centres undefined) ?
Solution: 88.7

---

Below, each entry is listed alongside its reported growth.
- Tested on: IGROV1 ovarian
- protocolSummary: NCI-60 one-dose screen, 48 h (100 = growth as untreated, 0 = no growth, -100 = all killed)
- conditionDescription: 10 µM unless noted
This is part of a sample that, as a whole, favours compounds with a hit. Of some 83,000 tested, about 20% had one in any assay. Activity calls are given as the source filed them. How the source made its calls: active means growth percent below 10; inactive means the rest.

[[record]]
compound = "Cc1nc(Nc2ccc(Cl)cc2)c2cnn(-c3ccccc3)c2n1"
testedsystem = "IGROV1 ovarian"
result = "112% (inactive)"


Exercise: Quick one: growth of N#Cc1c(N)nc2c(c(-c3ccc(Cl)cc3)nn2-c2ccccc2)c1C#N ?
Solution: 99.2% [100 µM] (inactive)

Exercise: Similarly, CC(C)(C)OC(=O)CC1(O)CCCCC1 ?
Solution: 114% (inactive)

Exercise: Similarly, Clc1ccc2c(c1)N(C1CCCN(Cc3ccccc3)C1)c1ccccc1S2 (configuration not stated) ?
Solution: 43.8% (inactive)

Exercise: Similarly, CCNC1=CC(=O)c2ncccc2C1=O ?
Solution: 63.2% (inactive)

Exercise: Similarly, Cc1cc(Cl)nc(Nc2ccccc2)n1 ?
Solution: 100% (inactive)

Exercise: Similarly, N=C(N)N1CCc2ccccc2C1 ?
Solution: 102% (inactive)

Exercise: Similarly, CCCCCCC(C)CC1=C(O)c2ccccc2C(=O)C1=O (configuration not stated) ?
Solution: 41.5% (inactive)

Exercise: Similarly, NC(=O)Cc1nc(O)cc(=O)[nH]1 ?
Solution: 109% (inactive)
